Reported values of IC50 for individual entries
targetOfAssay: PI3K (Homo sapiens)
Sequence (P42336 whole entry): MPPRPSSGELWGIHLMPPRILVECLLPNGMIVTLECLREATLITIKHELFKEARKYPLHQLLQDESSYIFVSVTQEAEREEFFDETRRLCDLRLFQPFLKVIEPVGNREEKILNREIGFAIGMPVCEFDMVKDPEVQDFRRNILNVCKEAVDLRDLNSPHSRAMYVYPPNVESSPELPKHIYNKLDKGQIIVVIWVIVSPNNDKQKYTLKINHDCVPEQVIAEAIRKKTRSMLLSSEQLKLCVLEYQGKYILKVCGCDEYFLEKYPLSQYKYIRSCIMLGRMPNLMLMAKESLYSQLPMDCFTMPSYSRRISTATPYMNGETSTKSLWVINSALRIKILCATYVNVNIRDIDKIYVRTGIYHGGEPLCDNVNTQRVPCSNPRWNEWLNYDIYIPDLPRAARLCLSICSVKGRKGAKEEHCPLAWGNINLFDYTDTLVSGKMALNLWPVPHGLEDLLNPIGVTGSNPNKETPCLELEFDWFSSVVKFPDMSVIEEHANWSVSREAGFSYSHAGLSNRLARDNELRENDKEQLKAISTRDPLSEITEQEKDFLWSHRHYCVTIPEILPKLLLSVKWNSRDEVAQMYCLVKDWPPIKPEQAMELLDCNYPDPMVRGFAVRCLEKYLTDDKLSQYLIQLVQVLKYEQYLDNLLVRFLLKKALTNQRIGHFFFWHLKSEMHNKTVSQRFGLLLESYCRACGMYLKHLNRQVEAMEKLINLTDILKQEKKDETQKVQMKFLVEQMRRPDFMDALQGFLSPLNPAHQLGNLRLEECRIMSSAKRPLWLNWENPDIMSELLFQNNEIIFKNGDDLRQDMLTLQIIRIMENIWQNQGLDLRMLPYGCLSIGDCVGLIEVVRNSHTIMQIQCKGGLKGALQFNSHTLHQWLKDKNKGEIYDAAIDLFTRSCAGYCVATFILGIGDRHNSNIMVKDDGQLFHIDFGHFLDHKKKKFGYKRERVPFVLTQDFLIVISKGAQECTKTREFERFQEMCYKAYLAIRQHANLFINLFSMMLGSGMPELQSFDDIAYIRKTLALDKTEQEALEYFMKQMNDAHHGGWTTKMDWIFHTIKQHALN
Sequence (P27986 whole entry partner): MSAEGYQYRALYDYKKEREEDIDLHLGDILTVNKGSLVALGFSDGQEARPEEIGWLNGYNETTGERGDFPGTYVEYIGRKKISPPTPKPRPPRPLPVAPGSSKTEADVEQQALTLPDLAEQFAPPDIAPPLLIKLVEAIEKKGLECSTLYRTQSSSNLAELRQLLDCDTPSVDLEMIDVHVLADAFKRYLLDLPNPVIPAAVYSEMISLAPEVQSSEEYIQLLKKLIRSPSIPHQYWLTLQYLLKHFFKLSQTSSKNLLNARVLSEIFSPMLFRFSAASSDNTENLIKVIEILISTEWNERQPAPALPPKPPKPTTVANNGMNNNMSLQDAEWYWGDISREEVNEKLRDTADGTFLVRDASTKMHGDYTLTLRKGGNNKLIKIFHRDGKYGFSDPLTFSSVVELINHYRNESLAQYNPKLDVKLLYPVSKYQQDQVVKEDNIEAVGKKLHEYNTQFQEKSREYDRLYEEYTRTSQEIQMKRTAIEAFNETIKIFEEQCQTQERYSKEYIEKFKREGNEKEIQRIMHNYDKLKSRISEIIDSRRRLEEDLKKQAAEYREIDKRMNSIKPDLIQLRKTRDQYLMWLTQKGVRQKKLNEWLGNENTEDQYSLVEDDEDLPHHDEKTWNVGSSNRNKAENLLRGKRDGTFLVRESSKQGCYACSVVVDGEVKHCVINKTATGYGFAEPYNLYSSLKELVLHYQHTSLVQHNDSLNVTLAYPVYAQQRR
assayInfo: Fluorescence polarization assay for PI3K;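 note: PI3K kinase reaction on PIP2 with ATP, 30-60 min, product sensed by GST-GRP with red probe in fluorescence polarization (mP), controls without enzyme and at zero time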
Assay type: biochemical
particulars: PI3Kα; read-out: PI3Kα IC50
// note: answer is a bare numeric in nM

Examples with their reported IC50 follow.
compound=CCOC(=O)N1CCC(n2ncc3c(N4CCOC[C@@H]4C)nc(-c4ccc(NC(=O)Nc5ccccc5)cc4)nc32)CC1 quantitativereadout=19
compound=O=C(NCCF)Nc1ccc(-c2nc(N3CCOCC3)c3cnn(C4CCN(CCCCO)CC4)c3n2)cc1 quantitativereadout=782
compound=COC(=O)N1CCC(n2ncc3c(N4CCOCC4)nc(-c4ccc(NC(=O)Nc5ccc(CCN6CCNCC6)cc5)cc4)nc32)CC1 quantitativereadout=20
compound="CNC(=O)Nc1ccc(-c2nc(N3CCOCC3)c3cnn(C4CCN(C(=O)c5ccccn5)CC4)c3n2)cc1 [Example 418]" quantitativereadout=124
compound=Clc1cc(-c2nc(N3CCOCC3)c3cnn(C4CCN(Cc5ccccc5)CC4)c3n2)ccn1 quantitativereadout=1030

Challenge: Please look up its IC50: O=C(Nc1ccc(-c2nc(N3CCOCC3)c3cnn(C4CCN(C(=O)c5cccnc5)CC4)c3n2)cc1)Nc1cccs1 [Compound 657]
Response given: 14

Challenge: Returns the measured IC50 for the input compound. Input: CNCCNC(=O)Nc1ccc(-c2nc(N3CCOCC3)c3cnn(C4CCN(Cc5ccccc5)CC4)c3n2)cc1 [Example 300]
Response given: 13

Challenge: Entry CNC(=O)Nc1ccc(-c2nc(N3CCOCC3)c3cnn(C4CCN(C(=O)c5ccc(C)nc5)CC4)c3n2)cc1 [Example 420] has what IC50?
Response given: 119

Challenge: Would you mind telling me what IC50 value was observed for `Nc1ccc(-c2nc(N3CCOCC3)c3cnn(C4CCN(C(=O)c5cccnc5)CC4)c3n2)cn1` ?
Response given: 109

Challenge: Please look up its IC50: CN(C)CCCNC(=O)Nc1ccc(-c2nc(N3CCOCC3)c3cnn(C4CCN(Cc5ccccc5)CC4)c3n2)cc1 [Compound 271]
Response given: 158
